These measurements were taken from PubChem BioAssay.

experiment: H69AR cell proliferation blockers – human, duplicate replicates, primary screen (AID 580); conditions: H69AR lung tumor cells viability, ATP luminescence, 72 h; at 10 µM; active compounds read low;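 note: 100% = mean luminescence of untreated wells and 0% = no signal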
Activity calls are given as the source filed them.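 Rule for the calls: active = viability at or under a set limit in both replicates, limit being median viability minus 3 SD (cut at about 48% in these data, passing the limit was not always enough); inconclusive = at or under the limit in just one replicate; inactive = at or above the limit in both replicates.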
Recorded viability by entry

COc1ccc(CC[n+]2cc(/N=C(\C)[O-])on2)cc1OC :: 92.1% (inactive)
CN1CCC(N(C)c2ncnc3ccc(Br)cc23)CC1 :: 87.9% (inactive)

Given item CC(=NCCCN1CCOCC1)c1c(O)n(-c2ccccc2C)c(=O)[nH]c1=O , the value recorded as its viability is 92.2% (inactive)

----------
target: Pantothenate synthetase (Mycobacterium tuberculosis (strain ATCC 25618 / H37Rv)) (UniProt P9WIL5); assay: Coupled enzyme confirmation of inhibitors against recombinant Mtb PanC (AID 375); conditions: coupled enzyme assay; at 10 µM, active compounds read high;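 note: 0% = full reaction with vehicle and 100% = no enzyme background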
Sequence (P9WIL5 whole entry, looked up): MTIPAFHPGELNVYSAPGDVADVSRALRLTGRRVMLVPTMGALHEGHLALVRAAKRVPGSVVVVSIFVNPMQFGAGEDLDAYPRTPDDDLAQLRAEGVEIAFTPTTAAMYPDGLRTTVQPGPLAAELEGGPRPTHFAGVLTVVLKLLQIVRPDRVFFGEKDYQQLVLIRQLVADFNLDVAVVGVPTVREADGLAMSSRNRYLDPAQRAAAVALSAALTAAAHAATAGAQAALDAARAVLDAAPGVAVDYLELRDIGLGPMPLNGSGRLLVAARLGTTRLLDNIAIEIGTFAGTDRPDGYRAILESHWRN
Please mark 1 (yes) if the recorded inhibition is equal to or greater than 4%, and 0 (no) if it falls below.

Look over these answered cases.
CCC(=O)N1CCc2cc(S(=O)(=O)CCC(=O)Nc3nc(C)cs3)ccc21 :: 1 (yes)
CN(CC(=O)Nc1ccncc1)S(=O)(=O)c1ccccc1 :: 1 (yes)
Cc1c(/C(O)=C2/C(=O)C(=O)N(CCN3CCOCC3)C2c2cccs2)cnn1-c1ccccc1 (stereo not drawn) :: 1 (yes)

Data request: Determine whether this compound has inhibition no lower than 4%: Fc1cccc2sc(N3CCOCC3)nc12
Data returned: 0 (no)

Data request: Check the entry CN1CCN(C(=O)c2cnn3c(C(F)F)cc(C4CC4)nc23)CC1 : does inhibition equal or exceed 4%?
Data returned: 1 (yes)
